Source of measurements: patent US20220298254A1

Biological target: T1, human CD47 (recombinant protein, construct not stated) (human, UniProt Q08722 19-141)
T1 construct: also called hCD47; human CD47 protein
Assay: BLI (BLItz), IgG1 captured on anti-human Fc tips, human CD47 as analyte, 1:1 global fit
Could you please report measured kon for the items listed next?

# annotated cases, reported kon shown
{"binder": "11A1H10-IgG1 (antibody, V domains shown, Humanised version of clone 1-1-A1, IgG1/kappa; also called 1A11H10) VH: QVQLVQSGAEVKKPGASVKVSCKASGYTFTGYVIHWVRQAPGQGLEWMGYINPYNGGTNYAQKFKGRVTLTSDTSTTTAYMELSRLRSEDTAVYYCASGGYYTMDYWGQGTLVTVSS VL: DVVMTQSPLSLPVTLGQPASISCRSSQHLEYSNGYSYLHWYQQRPGQSPRLLIYKVSNRDSGVPDRFSGSGSGTDFTLKISRVEAEDVGVYYCSQSTHVPYTFGGGTKVEIKR", "kon": "80900 M⁻¹ s⁻¹"}
{"binder": "11A1H3-IgG1 (antibody, V domains shown, Humanised version of clone 1-1-A1, IgG1/kappa; also called 1A11H3) VH: QVQLVQSGAEVKKPGASVKVSCKASGYTFTNYVMHWVRQAPGQGLEWMGYINPYNDGTKSNEKFQGRVTLTSDTSTSTAYMELSSLRSEDTAVYYCASGGYYTMDYWGQGTLVASTK VL: DVVMTQSPLSLPVTLGQPASISCRSSQHLEYSNGYSYLHWYQQRPGQSPRLLIYKISNRFSGVPDRFSGSGSGTDFTLKISRVEAEDVGVYYCSQSTHVPYTFGGGTKVEIKR", "kon": "266000 M⁻¹ s⁻¹"}
{"binder": "11A1H5-IgG1 (antibody, V domains shown, Humanised version of clone 1-1-A1, IgG1/kappa; also called 1A11H5) VH: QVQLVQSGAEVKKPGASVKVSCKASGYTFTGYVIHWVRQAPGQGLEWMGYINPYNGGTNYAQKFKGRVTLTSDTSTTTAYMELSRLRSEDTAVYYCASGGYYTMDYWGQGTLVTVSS VL: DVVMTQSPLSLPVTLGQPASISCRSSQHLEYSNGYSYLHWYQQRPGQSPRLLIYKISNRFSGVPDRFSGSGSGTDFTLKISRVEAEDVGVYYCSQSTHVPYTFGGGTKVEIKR", "kon": "129000 M⁻¹ s⁻¹"}
{"binder": "11A1H6-IgG1 (antibody, V domains shown, Humanised version of clone 1-1-A1, IgG1/kappa; also called 1A11H6) VH: QVQLVQSGAEVKKPGASVKVSCKASGYTFTNYVIHWVRQAPGQGLEWMGYINPYNDGTKYNQKFKGRVTLTSDTSTTTAYMELSRLRSDDTAVYYCASGGYYTMDYWGQGTLVASTK VL: DVVMTQSPLSLPVTLGQPASISCRSSQHLEYSQGYSYLHWYQQRPGQSPRLLIYKVSNRDSGVPDRFSGSGSGTDFTLKISRVEAEDVGVYYCSQSTHVPYTFGGGTKVEIKR", "kon": "108000 M⁻¹ s⁻¹"}
{"binder": "anti-CD47 clone 1-1-A1_BM IgG1 (antibody, V domains shown) VH: QVQLQQSGPDLKKPGASVKVSCKVSGYTFTNYVIHWVRQKPGQGLEWMGYINPYNDGTKSNEKFKGKATLTSDKSSTSAYMELSSLTSEDTAVYYCASGGYYTMDYWGQGTSVTVSS VL: DVVMTQTPLSLPVTLGDQASISCRSSQHLEYSNGYSYLHWYQQRPGQSPQLLIYKISNRFSGVPDRFSGSGSGTDFTLKISRVEAEDLGVYYCSQSTHVPYTFGGGTKLEIKR", "kon": "130000 M⁻¹ s⁻¹"}

Query binder follows.
Give the measured kon of 11A1H9-IgG1 (antibody, V domains shown, Humanised version of clone 1-1-A1, IgG1/kappa; also called 1A11H9) VH: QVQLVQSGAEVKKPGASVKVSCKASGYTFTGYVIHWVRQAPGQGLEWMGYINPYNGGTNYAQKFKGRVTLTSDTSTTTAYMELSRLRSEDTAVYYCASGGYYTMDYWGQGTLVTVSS VL: DVVMTQSPLSLPVTLGQPASISCRSSQHLEYSTGYSYLHWYQQRPGQSPRLLIYKVSNRDSGVPDRFSGSGSGTDFTLKISRVEAEDVGVYYCSQSTHVPYTFGGGTKVEIKR .
273000 M⁻¹ s⁻¹
